- study.target: SUMO-conjugating enzyme UBC9 (Homo sapiens) (UniProt P63279)
- Sequence (P63279 whole entry, looked up): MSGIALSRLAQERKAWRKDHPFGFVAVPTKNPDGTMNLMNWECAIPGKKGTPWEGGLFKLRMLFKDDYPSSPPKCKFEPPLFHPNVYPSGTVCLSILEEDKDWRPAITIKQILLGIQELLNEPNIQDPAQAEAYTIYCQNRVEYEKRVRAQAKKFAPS
- assay.info: inhibitors of in vitro SUMOylation cascade, primary screen, biochemical, HTRF, uHTS (AID 2006)
- experimental.setup: HTRF SUMOylation assay, SAE1/SAE2 + UBC9, in vitro; at 35 µM; hits give high values
In all, about 290,000 compounds went through this assay and about 1,000 (0.34%) were called active. The sample holds actives, similar compounds and a random draw of the others, so the mix is not that of the screen.
Listing of entries alongside the reported inhibition.

compound | inhibition / %
CCc1nn(CCCC(=O)NCc2ccc(C)cc2)c(=O)c2cc3occc3n12 | -4.3
NS(=O)(=O)c1ccc(CNC(=O)c2cccc(Oc3ccccc3)c2)cc1 | -2.7
COC(=O)C1=C(C)NC(=O)CC1c1ccccc1OC (stereo not drawn) | 10.4
O=c1oc2cc(O)ccc2cc1-c1ccc(F)cc1 | 50.3
CCOC(=O)C1CCN(S(=O)(=O)c2ccc3c(c2)N(C)C(=O)CC(=O)N3C)CC1 | 10.1
O=C1Nc2cc(C(=O)N3CCC(N4CCCCC4)CC3)ccc2S/C1=C\c1ccccc1 | 10.8
CC(C)c1ccc2c(c1)c(SC(C)(C)C)c(CC(C)(C)C(=O)O)n2Cc1ccc(Cl)cc1 | 52.2
COc1ccc(N(C)C(=O)C2CCN(S(=O)(=O)c3cccc4nsnc34)CC2)cc1 | 11.4
Cc1c(C)c(C)c(S(=O)(=O)N2CCC3(CC2)OCCO3)c(C)c1C | 0.4
CC(=O)N1CCC(N(C(=O)Nc2ccc(Cl)cc2)C(C)C)CC1 | 13.1
O=[N+]([O-])C(=c1ccc2c(c1)N1C3=C(CCCC3)CC3CCCCC31N=2)[N+](=O)[O-] (stereo not drawn) | 57.5
Cc1c(Cc2ccccc2)c(=O)oc2cc(OCC(N)=O)ccc12 | 3.3
CCC(=O)Nc1nnc(S(=O)(=O)N(CC(C)C)c2ccccc2)s1 | -0.8
CCOc1ncccc1C(=O)NCCc1ccc(OC)cc1 | -5.7
CC(=O)Nc1cc2ccc(OC(C)=O)cc2oc1=O | 43.7
O=C(Nc1ccccc1Cl)/C(Cl)=C(\Cl)S(=O)c1ccccc1 (stereo not drawn) | 57
O=C(Nc1ccc(S(=O)(=O)Nc2nccs2)cc1)c1cc(=O)[nH]c2ccccc12 | 30.5
CC(=O)Oc1ccc2c(C)c(CC(C)O)c(=O)oc2c1 (stereo not drawn) | 52.6
CCOC(=O)N1CC=C2C(C#N)=C(N)C(C#N)(C#N)[C@H](c3cccs3)[C@H]2C1 | -13.8
CCOCc1nnc(NC(=O)CCC2CCCCC2)s1 | 10.6
COC(=O)c1cc(OCC(=O)NC2CCCc3ccccc32)cc(C(=O)OC)c1 (stereo not drawn) | 11.7
CC(O)c1ccc(OCCN(C)c2ccccn2)cc1 (stereo not drawn) | 20.8
O=c1oc2ccccc2cc1-c1csc(Nc2ccc(O)cc2)n1 | 7.7
Cc1ccc(NC(=O)CN2CCc3ccccc3C2)cc1C | -5.2
CCOc1ccc(OCc2ccc(C(=O)N(C)c3ccccc3)o2)cc1 | 5
CCC(C)(C)NC(=O)C(c1ccc(OC)cc1)N(C(=O)CCC(=O)Nc1cc(C)on1)c1ccc(OC)cc1OC (stereo not drawn) | 6
COc1cc2c(cc1OC)C(C(=O)Nc1cc(C)c(OC)c(C)c1)CC(=O)N2 (stereo not drawn) | 1.4
CCC(CC)C(=O)Nc1ccc(S(=O)(=O)Nc2nccs2)cc1 | 14.7
Cc1cc(C(F)F)nn1CC(=O)NC1CCCCCC1 | 2.2
O=[N+]([O-])/C=C/c1ccc2c(ccn2Cc2ccccc2)c1 | 19.7
CCc1nccn1CCC(=O)N1CCCC(N2CCN(c3ccccc3F)CC2)C1 (stereo not drawn) | 4.2
Cc1c(Cl)cccc1NC(=O)CCC(=O)N/N=C/c1ccco1 | -5.3
O=C(O)C1CCCCC1C(=O)N1CCN(S(=O)(=O)c2ccc(F)cc2)CC1 (stereo not drawn) | 9.5
COc1cccc(C(=O)c2cc3ccc(O)cc3oc2=O)c1 | 16.5
Cc1ccc(CNC(=O)Cc2cn(C)c3ccccc23)cc1 | -1.9
COc1ccc(-c2nn(-c3ccccc3)cc2/C=C2/SC(=S)N(CCCC(=O)O)C2=O)c(C)c1 | 44.1
C/C(=C/c1ccccc1)C(=O)N1CCN(c2ccccc2)CC1 | 16.7
CN(C)S(=O)(=O)c1cccc(-c2nn(-c3ccccc3)cc2/C=C2\SC(=S)N(CC(=O)O)C2=O)c1 | 37.3
CC(C)c1nc(CNC(=O)CC2C(=O)NCCN2Cc2cccc(F)c2F)cs1 (stereo not drawn) | -7.6
Cc1c(C)c2c(OCC(=O)N[C@@H](C(=O)O)c3ccccc3)cc3c(c2oc1=O)CCC(C)(C)O3 | 44
CCOC(=O)c1c(-c2ccccc2)oc2cc(Br)c(O)c(C=O)c12 | -19
O=C(COC(=O)c1cccs1)Nc1ccccc1Cl | -14.2
COc1ccc(CN2C3CCCC2CC(NC(=O)c2cccc(F)c2)C3)cc1 (stereo not drawn) | 8.9
